// reported pIC50 for each item listed
- measured.on: ROCKII (1-543) (Homo sapiens (Human))
- test: Luciferin-Luciferase Assay (PKLight ATP detection)
- Type: biochemical
- condition.notes: 750 nM ATP, 500 nM peptide, 7.5 nM kinase
- Sequence (O75116 1-543): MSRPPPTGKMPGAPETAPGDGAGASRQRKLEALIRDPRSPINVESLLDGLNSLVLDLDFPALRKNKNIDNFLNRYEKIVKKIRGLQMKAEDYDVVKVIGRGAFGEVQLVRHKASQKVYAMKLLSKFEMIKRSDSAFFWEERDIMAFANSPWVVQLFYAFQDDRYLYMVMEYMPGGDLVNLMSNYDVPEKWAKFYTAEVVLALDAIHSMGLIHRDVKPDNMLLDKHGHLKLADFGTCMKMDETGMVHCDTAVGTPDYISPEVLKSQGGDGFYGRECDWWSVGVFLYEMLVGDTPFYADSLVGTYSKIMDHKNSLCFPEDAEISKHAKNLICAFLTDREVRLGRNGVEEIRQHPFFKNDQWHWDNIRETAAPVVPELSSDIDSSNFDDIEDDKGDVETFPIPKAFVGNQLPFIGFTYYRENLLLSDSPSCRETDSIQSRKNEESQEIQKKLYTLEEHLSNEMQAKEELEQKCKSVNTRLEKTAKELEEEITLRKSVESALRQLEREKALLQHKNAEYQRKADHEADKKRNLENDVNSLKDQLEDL
pIC50: −log10 of the molar value.
observable: pIC50

molecule_smiles=CN1CCc2nc(NC(=O)c3cccc([C@H]4CCCN4C(=O)Nc4ccc(C#N)cc4)c3)sc2C1 observable=pIC50 result_number=7.82
molecule_smiles=CN1CCc2nc(NC(=O)c3cccc([C@H](NC(=O)Nc4ccc(C#N)cc4)C4CC4)c3)sc2C1 observable=pIC50 result_number=7.34
molecule_smiles=C[C@@H](NC(=O)Nc1ccc(C#N)cc1)c1cccc(C(=O)Nc2ccc3c(c2)CN(C)CC3)c1 observable=pIC50 result_number=7.24
molecule_smiles=C[C@@H](NC(=O)Nc1ccc(C#N)cc1)c1cccc(C(=O)Nc2nc3c(s2)CN(C)CC3)c1 observable=pIC50 result_number=7.65

----------
- measured.on: ROCKII (1-543) (Homo sapiens (Human), UniProt O75116)
- test: IMAP Assay (fluorescence polarization, FAM S6 peptide)
- Assay type: biochemical
- condition.notes: 100 μM ATP, 200 nM FAM S6 peptide, 1 nM kinase; read-out: Assay 2 IC50
- Sequence (O75116 1-543, species assumed): as the sequence (O75116 1-543) above
pIC50: −log10 of the molar value.
// reported pIC50 for each item listed
observable: pIC50

compound="CN(C)[C@H]1CCc2nc(NC(=O)c3cccc([C@H]4CCCN4C(=O)Nc4cccc(C#N)c4)c3)sc2C1 [Compound 37]" result_number=9.52
compound="Nc1nonc1-n1nnc(C(=O)N2CCC[C@@H]2c2cccc(C(=O)Nc3nc4c(s3)C[C@@H](N3CCOCC3)CC4)c2)c1-c1ccccc1 [Compound 134]" result_number=7.52
compound="N#Cc1cccc(NC(=O)N2CCC[C@@H]2c2cccc(C(=O)Nc3ccc(CCN4CCOCC4)cc3)c2)c1 [Compound 16, acetic acid]" result_number=7.64

----------
- measured.on: ROCKII (1-543) (Homo sapiens (Human))
- test: Luciferin-Luciferase Assay (PKLight ATP detection)
- Format: biochemical
- condition.notes: 750 nM ATP, 500 nM peptide, 7.5 nM kinase
pIC50: −log10 of the molar value.
# pIC50 >= 8 gives y, anything below gives n

compound="CN1CCc2nc(NC(=O)c3cccc(N4CCC[C@@H]4C(=O)Nc4cccc(C#N)c4)c3)sc2C1 [Compound 21]" measured_on="ROCKII (1-543) (Homo sapiens (Human))" category=n
compound="CC[C@@H](NC(=O)Nc1cccc(C#N)c1)c1cccc(C(=O)Nc2nc3c(s2)CN(C)CC3)c1 [Compound 10]" measured_on="ROCKII (1-543) (Homo sapiens (Human))" category=y
compound="CN1CCc2nc(NC(=O)c3cccc([C@H]4CNC[C@@H]4C(=O)Nc4ccc(C#N)cc4)c3)sc2C1 [Compound 15]" measured_on="ROCKII (1-543) (Homo sapiens (Human))" category=n
compound="COc1ccc(C(=O)N[C@H](C)c2cccc(C(=O)Nc3nc4c(s3)CN(C)CC4)c2)cc1OC [Compound 97]" measured_on="ROCKII (1-543) (Homo sapiens (Human))" category=y
compound="CN(C)[C@H]1CCc2nc(NC(=O)c3cccc([C@H]4CCCN4C(=O)c4ccc(-n5ccnc5)cc4)c3)sc2C1 [Compound 102]" measured_on="ROCKII (1-543) (Homo sapiens (Human))" category=y
compound="O=C(Nc1nc2c(s1)C[C@@H](N1CCOCC1)CC2)c1cccc([C@H]2CCCN2C(=O)c2ccc3[nH]c(=O)ccc3c2)c1 [Compound 126]" measured_on="ROCKII (1-543) (Homo sapiens (Human))" category=y
